target: Metabotropic glutamate receptor 5 (Homo sapiens); experiment: Negative allosteric modulation of human mGlu5 receptor expressed in HEK293 cells assessed as inhibition of L-glutamate-induced activity after 1 hr by FLIPR assay relative to control; assay type: cell-based; design: concentration or dose not given beside the values; settings: concentration not given here
Sequence (P41594 21-1212 limits assumed): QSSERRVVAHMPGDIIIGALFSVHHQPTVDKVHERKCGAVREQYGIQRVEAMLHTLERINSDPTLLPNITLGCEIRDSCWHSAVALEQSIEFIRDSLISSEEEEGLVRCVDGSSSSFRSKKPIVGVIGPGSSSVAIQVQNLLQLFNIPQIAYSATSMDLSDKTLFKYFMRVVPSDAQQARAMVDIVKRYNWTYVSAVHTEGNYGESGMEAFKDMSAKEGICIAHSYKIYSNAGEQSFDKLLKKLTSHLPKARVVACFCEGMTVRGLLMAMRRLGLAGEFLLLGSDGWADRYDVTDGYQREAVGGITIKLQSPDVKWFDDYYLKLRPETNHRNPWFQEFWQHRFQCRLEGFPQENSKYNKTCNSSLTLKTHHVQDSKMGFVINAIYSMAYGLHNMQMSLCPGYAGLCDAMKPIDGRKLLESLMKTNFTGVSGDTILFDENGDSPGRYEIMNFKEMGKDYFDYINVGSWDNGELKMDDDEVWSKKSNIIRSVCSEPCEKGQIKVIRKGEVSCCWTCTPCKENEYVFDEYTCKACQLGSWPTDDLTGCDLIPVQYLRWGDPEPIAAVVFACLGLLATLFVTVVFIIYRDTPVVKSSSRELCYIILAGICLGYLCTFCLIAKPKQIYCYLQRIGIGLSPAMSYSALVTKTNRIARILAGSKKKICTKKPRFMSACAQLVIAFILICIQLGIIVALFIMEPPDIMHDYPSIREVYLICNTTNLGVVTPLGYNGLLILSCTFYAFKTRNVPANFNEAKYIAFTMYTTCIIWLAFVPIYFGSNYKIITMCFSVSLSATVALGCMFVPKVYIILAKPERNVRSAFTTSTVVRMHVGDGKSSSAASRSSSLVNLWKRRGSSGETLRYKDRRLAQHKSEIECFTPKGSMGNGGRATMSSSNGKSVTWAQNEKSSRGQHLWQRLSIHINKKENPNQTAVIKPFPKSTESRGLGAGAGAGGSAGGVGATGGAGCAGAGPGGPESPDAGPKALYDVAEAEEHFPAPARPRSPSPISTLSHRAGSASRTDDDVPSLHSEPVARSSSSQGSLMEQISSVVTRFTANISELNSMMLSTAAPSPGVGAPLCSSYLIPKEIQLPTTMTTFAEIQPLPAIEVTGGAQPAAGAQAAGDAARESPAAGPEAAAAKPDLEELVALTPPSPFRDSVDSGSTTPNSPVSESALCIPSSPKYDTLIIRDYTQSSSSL
Below: a set of entries, each annotated with reported inhibition.
Reply numerically in %, unit not repeated.

Field: example entries. Status: answers known.
>  <Molecule>
O=S(=O)(N1CCCCC1)N1CCc2nc(C#Cc3ccccc3)sc2C1

>  <inhibition [%]>
86

$$$$
>  <Molecule>
O=S(=O)(N1CCOCC1)N1CCc2nc(C#Cc3ccccc3)sc2C1

>  <inhibition [%]>
89

$$$$
>  <Molecule>
O=C(C1CC(F)C1)N1CCc2nc(C#Cc3ccccc3)sc2C1 (stereo unspecified)

>  <inhibition [%]>
38

$$$$
>  <Molecule>
CCCCN1CCc2nc(C#Cc3ccccc3)sc2C1

>  <inhibition [%]>
28

$$$$

molecule Fc1cccc(C#Cc2nc3c(s2)CN(C2CCOC2)CC3)c1 (stereo unspecified) , inhibition observed: 91

// sample O=C(c1cccc(C(F)(F)F)c1)N1CCc2nc(C#Cc3ccccc3)sc2C1 , its inhibition was 12
